# Target or test system: L-lactate dehydrogenase (Plasmodium falciparum (isolate CDC / Honduras))
# Assay method text: PfLDH activity inhibition – cell lysate, 3D7 strain, counter-screen for P. falciparum growth inhibition project (AID 2304);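 note: 0% = vehicle and 100% = reference inhibitor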
# Test settings: P. falciparum 3D7 crude extract, LDH APAD/NBT absorbance; at 2 µM; hits give high values
This section presents compounds with their documented inhibition values.
The reply should be a number in %, with the unit left off.

Cc1nnc(NC(=O)c2cn(-c3ccccc3)nc2-c2ccccc2C)o1 = 1
COc1cc(N)c(Cl)cc1C(=O)NC1CCC(NCC2CCCCC2)CC1 (stereo not given) = 0
Cc1cccc2[nH]c(-c3cccc(-c4ccc(NC(=O)N[C@@H]5C[C@H]5c5ccccc5)cc4)c3)nc12 = 6
Cc1cnc(N2CCN(CCCN3CCCC3)CC2)nc1Oc1ccc(-n2ccnc2)cc1 = 4
CCCSc1nc2c(c(=O)n1Cc1ccco1)C1(CCCCC1)Cc1ccccc1-2 = 0
O=S(=O)(Nc1cc2c(cc1O)CCNCC2)c1ccc(-c2ccc(Cl)cc2)cc1 = 3
Cc1cccc2[nH]c(-c3cccc(-c4ccc(NC(=O)c5ccc(=O)[nH]n5)cc4)c3)nc12 = 1
Cc1cc(NN=Cc2cccc([N+](=O)[O-])c2)c2ccccc2n1 = 3
CCOC(=O)CCCOc1c(OC)cc(Cc2cnc(N)nc2N)cc1OC = 8
O=C(NCCCCN1CCC(O)(c2ccc(Cl)cc2)CC1)c1ccc(Br)cc1 = 4

# inhibition (compound: `Nc1nc(N)c2c3c(cnc2n1)CCCC3` ) is -4

# inhibition (compound: COc1cccc(Nc2c(C(N)=O)cnc3ccc(-c4ccc(S(C)=O)cc4)cc23)c1 (stereo not given) ) is 9

# inhibition (compound: `CCCn1cc2c(ccc3nc(N)nc(N)c32)n1` ) is 5

###

# Assay method text: inhibition of 3D7 malaria parasite growth – strain 3D7 (AID 2306);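 note: 0% = DMSO wells and 100% = chloroquine plus artemisinin control wells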
# Test settings: P. falciparum 3D7 erythrocytic growth, LDH absorbance, 72 h; at 2 µM; hits give high values
Measured parameter: growth inhibition (%)
The reply should be a number in %, with the unit left off.

Illustrative cases are given below, each with its answer.
CN1CCC(NCc2cccc(-c3ccc(S(=O)(=O)NCCN4CCCC4)c(F)c3)c2)CC1 = 91
O=C(Nc1cccc(Cl)c1N1CCOCC1)C(Cl)(Cl)Cl = 96
CCOC(=O)c1c(CN2CCCC2)n(-c2ccccc2)c2cc(Br)c(O)cc12 = 83

# growth inhibition (molecule: `COc1ccc(-c2cccc(NC(=O)c3cccs3)c2)cc1CN1CCCN(C)CC1` ) is 100

# growth inhibition (molecule: `c1ccc(CN2CCN(CCNc3c4ccccc4nc4ccccc34)CC2)cc1` ) is 100

###

# Target or test system: L-lactate dehydrogenase (Plasmodium falciparum (isolate CDC / Honduras))
# Assay method text: PfLDH activity inhibition – cell lysate, 3D7 strain, counter-screen for P. falciparum growth inhibition project (AID 2304);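 note: 0% = vehicle and 100% = reference inhibitor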
# Test settings: P. falciparum 3D7 crude extract, LDH APAD/NBT absorbance; at 2 µM; hits give high values
This section presents compounds with their documented inhibition values.
The reply should be a number in %, with the unit left off.

Illustrative cases are given below, each with its answer.
CCCCOC(=O)c1ccc(Nc2cc(C)nc3ccc(OC)cc23)cc1 = -5
O=C(NCCCCN1CCC(c2c[nH]c3ccccc23)CC1)c1sc(-c2ccc(C(F)(F)F)cc2)nc1CO = 0
COc1ccc2nc3cc(Cl)ccc3c(NCCCO)c2c1 = -1
FC(F)(F)c1ccc2nc(-c3ccc(-c4ccc(CN5CCN(c6ccncc6)CC5)cc4)s3)[nH]c2c1 = 2
CON=Cc1ccn(-c2ccc(O)c3c2C[C@H]2C[C@H]4[C@H](N(C)C)C(=O)C(C(N)=O)=C(O)[C@@]4(O)C(=O)C2=C3O)c1 = -1
Cc1cc(F)ccc1Nc1nc(N(C)c2ccccc2)c2cccc(OCCO)c2n1 = 0
Cc1ccc(-c2ccc3c(c2)C=C(C(=O)NC2CCN(CCNC(=O)c4cccs4)CC2)CCC3)cc1 = -1
NC1=NC(c2ccccc2)(c2ccccc2)C(=O)N1CC=Cc1ccccc1 = -3

# inhibition (compound: CCCNC(=O)C1Cc2c([nH]c3ccc(Br)cc23)C2(CCN(CCc3ccccc3)CC2)N1 (centres undefined) ) is -8

# inhibition (compound: `CCCCCc1cnc2nc(N)nc(N)c2c1C` ) is -3

# inhibition (compound: `CCC(=O)c1ccc(-c2ccc(=O)n(CC(=O)N(CCN(CC)CC)Cc3ccc(-c4ccc(C(F)(F)F)cc4)cc3)n2)cc1` ) is -7

# inhibition (compound: `O=C(CCc1cnc[nH]1)Nc1cccc(-c2cccc(-c3nc4ccc(C(F)(F)F)cc4[nH]3)c2)c1` ) is 7

# inhibition (compound: `CS(=O)(=O)CCNCc1nc(-c2ccc3c(Nc4ccc(Cl)cc4F)ccnc3c2)cs1` ) is 1

# inhibition (compound: `O=C(NCCCCN1CCN(CC=Cc2ccccc2)CC1)c1ccc(NC(=O)c2cc(Cl)cc(Cl)c2)cc1` ) is 4

# inhibition (compound: `COc1cc2nc(NCCN3CCOCC3)n3nc(-c4ccccc4)nc3c2cc1OC` ) is -3
